system: OVCAR-5 ovarian; assay: NCI tumour cell line growth inhibition, 48 h
endpoint: TGI

>  <compound>
COc1ccc(NC(/C(C(=O)C(=O)/C=C(\O)c2ccccc2)=C(\O)c2ccccc2)c2ccc(OC)cc2)cc1 (configuration not stated)

>  <target-or-test-system>
OVCAR-5 ovarian

>  <TGI>
> 100 µM

$$$$
>  <compound>
O=C(O)CCSC(=O)Nc1ccccc1

>  <target-or-test-system>
OVCAR-5 ovarian

>  <TGI>
> 100 µM

$$$$
>  <compound>
COc1ccc(NC(=O)NNS(=O)(=O)c2ccc(C)cc2)cc1

>  <target-or-test-system>
OVCAR-5 ovarian

>  <TGI>
> 100 µM

$$$$

I am curious: what TGI value has been reported for CN(C)CCNC(=O)c1cccc2c1nc(-c1ccncc1)c1ccccc12 ?
23.7 µM

Would you mind telling me what TGI value was observed for COC(=O)CNC(=O)CSc1nnc(COc2ccc(Cl)cc2)n1-c1ccccc1 ?
> 100 µM

Can you look up the measured TGI of OCC1OC(n2cnc3c(NCc4ccccc4O)ncnc32)C(O)C1O (configuration not stated) for me?
> 67.1 µM

Which value of TGI has been reported for CCC(C)C(=O)OC1CCC=C2C=CC(C)C(CCC3CC(O)CC(=O)O3)C21 (configuration not stated) in the records?
> 100 µM

Entry N#CC1=C(c2ccccc2)OC2(N)OC(c3ccccc3)=C(C#N)C12C#N (configuration not stated) has what TGI?
> 100 µM

Form field: reported TGI of S=C1Cc2c(-c3ccccc3)cc(-c3ccc(Cl)cc3)nc2-c2ccccc2N1
51.4 µM

# get_value(readout='TGI', item= C=C1C(O)C2CC(C)(C)C(=O)C2=C(CC(C)C)C12CC2 (configuration not stated) )
> 100 µM

For the compound Cc1ccc(CN2CCN(Cc3ccc(C)o3)C(C)C2)o1 (configuration not stated) , what TGI is on record?
> 100 µM

Data request, read-out TGI, for C/C(=N\NC(=S)N1CCN(c2ccccn2)CC1)c1cccc2cccnc12
> 60.1 µM
